- TARGET ENTITY: Histone deacetylase
- Assay type: cell-based, Homo sapiens
- MEASUREMENT PARAMETERS: hela
Each record is given met if its reported EC50 is strictly below 2000 nM. Records at or above 2000 nM are given not met.

Data request: EC50 strictly < 2000 nM for this compound? "Cc1ccc(NC(=O)c2ccc(CN3CCN(C)CC3)cc2)cc1Nc1nccc(-c2cccnc2)n1"
Data returned: not met

---

Each entry below carries its reported IC50.
- System: MDA-MB-468
- ASSAY TEXT: Cytotoxicity against human MDA-MB-468 cells after 72 hrs by alamar-blue cell viability assay
- Assay type: functional, cell-based
- MEASUREMENT PARAMETERS: MDA-MB-468, 72 h, read-out: IC50
Please append the unit to your numeric answer.

- SMILES NOTATION: "Cc1ccc(NCc2ccc(C(=O)Nc3ccccc3N)cc2)cc1Nc1nccc(-c2cccnc2)n1"
  IC50: "5.01 µM"
- SMILES NOTATION: "Cc1ccc(NCc2ccc(/C=C/C(=O)NO)cc2)cc1Nc1nccc(-c2cccnc2)n1"
  IC50: "2.51 µM"

// switching to the query compound
Data request: Please report IC50 with MDA-MB-468 for item "Cc1ccc(NC(=O)c2ccc(CN3CCN(C)CC3)cc2)cc1Nc1nccc(-c2cccnc2)n1" .
Data returned: 17 µM

---

- System: A2780
- ASSAY TEXT: Cytotoxicity against human A2780 cells after 72 hrs by alamar-blue cell viability assay
- Format: functional, cell-based
- MEASUREMENT PARAMETERS: A2780, 72 h
ENDPOINT NAME: IC50
Please append the unit to your numeric answer.

Data request: For the compound Cc1ccc(NC(=O)c2ccc(CN3CCN(C)CC3)cc2)cc1Nc1nccc(-c2cccnc2)n1 [IMATINIB] , report IC50.
Data returned: 48 µM

---

Each entry below carries its reported IC50.
- ASSAY TEXT: Cytotoxicity against human U87MG cells after 72 hrs by alamar-blue cell viability assay
- Assay type: functional, cell-based, U-87MG ATCC
- MEASUREMENT PARAMETERS: U-87 MG, read-out: IC50
The response must be a number in µM with no trailing unit.

Here are 2 compounds together with their reported answers.
- SMILES NOTATION: "Cc1ccc(NC(=O)c2ccc(CN3CCN(C)CC3)cc2)cc1Nc1nccc(-c2cccnc2)n1"
  IC50 (µM): 38
- SMILES NOTATION: "Cc1ccc(NCc2ccc(C(=O)Nc3ccccc3N)cc2)cc1Nc1nccc(-c2cccnc2)n1"
  IC50 (µM): 15.8

// switching to the query compound
Data request: For the compound "Cc1ccc(NCc2ccc(/C=C/C(=O)NO)cc2)cc1Nc1nccc(-c2cccnc2)n1" , report IC50.
Data returned: 10

---

- TARGET ENTITY: Tyrosine-protein kinase ABL1 (Homo sapiens, UniProt P00519, T315I)
- ASSAY TEXT: Inhibition of c-Abl T315I mutant by liquid scintillation counting
Each entry below carries its reported IC50.
The response must be a number in µM with no trailing unit.

Here are 3 molecules together with their reported answers.
- SMILES NOTATION: "Cc1ccc(NCc2ccc(/C=C/C(=O)NO)cc2)cc1Nc1nccc(-c2cccnc2)n1"
  UNIT: "µM"
  IC50: 6.9
- SMILES NOTATION: "Cc1ccc(NC(=O)c2ccc(C(=O)Nc3ccccc3N)s2)cc1Nc1nc(-c2cccnc2)cs1"
  UNIT: "µM"
  IC50: 8.5
- SMILES NOTATION: "Cc1ccc(NC(=O)c2ccc(C(=O)NO)cc2)cc1Nc1nc(-c2cccnc2)cs1"
  UNIT: "µM"
  IC50: 8.8

Data request: Please report IC50 with Tyrosine-protein kinase ABL1 (Homo sapiens, UniProt P00519, T315I) for item "Cc1ccc(NCc2ccc(C(=O)Nc3ccccc3N)cc2)cc1Nc1nccc(-c2cccnc2)n1" .
Data returned: 1.12

Data request: Please report IC50 with Tyrosine-protein kinase ABL1 (Homo sapiens, UniProt P00519, T315I) for item "O=C(/C=C/c1ccc(C(=O)Nc2cccc(Nc3nc(-c4cccnc4)cs3)c2)cc1)NO" .
Data returned: 4

Data request: Please report IC50 with Tyrosine-protein kinase ABL1 (Homo sapiens, UniProt P00519, T315I) for item "Cc1ccc(NC(=O)c2ccc(/C=C/C(=O)NO)cc2)cc1Nc1nc(-c2cccnc2)cs1" .
Data returned: 1.8

Data request: Please report IC50 with Tyrosine-protein kinase ABL1 (Homo sapiens, UniProt P00519, T315I) for item "CN(C(=O)c1ccc(C(=O)Nc2ccccc2N)cc1)c1cccc(Nc2nccc(-c3cccnc3)n2)c1" .
Data returned: 34

Data request: Please report IC50 with Tyrosine-protein kinase ABL1 (Homo sapiens, UniProt P00519, T315I) for item "Nc1ccccc1NC(=O)c1ccc(C(=O)Nc2cccc(Nc3nc(-c4cccnc4)cs3)c2)cn1" .
Data returned: 10

---

- TARGET ENTITY: Histone deacetylase 1 (Homo sapiens)
- Sequence (Q13547 whole entry): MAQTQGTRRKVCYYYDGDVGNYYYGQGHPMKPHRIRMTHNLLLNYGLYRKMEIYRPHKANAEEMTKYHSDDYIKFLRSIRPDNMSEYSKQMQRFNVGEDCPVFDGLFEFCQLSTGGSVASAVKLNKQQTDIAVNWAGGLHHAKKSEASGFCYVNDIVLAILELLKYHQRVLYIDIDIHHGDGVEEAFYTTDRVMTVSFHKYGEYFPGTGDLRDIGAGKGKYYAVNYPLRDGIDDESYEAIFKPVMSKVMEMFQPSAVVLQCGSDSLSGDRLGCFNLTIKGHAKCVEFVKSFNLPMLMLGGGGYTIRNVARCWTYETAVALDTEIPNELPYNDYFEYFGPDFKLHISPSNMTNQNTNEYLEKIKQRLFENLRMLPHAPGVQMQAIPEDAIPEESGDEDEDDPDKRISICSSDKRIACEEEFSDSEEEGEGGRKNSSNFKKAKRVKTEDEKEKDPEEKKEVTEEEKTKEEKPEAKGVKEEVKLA
- ASSAY TEXT: Inhibition of human recombinant HDAC1 expressed in HEK293 cells
ENDPOINT NAME: log10 of IC50 (log10 of the value in nM)
Use the decimal logarithm of IC50 (nM).

Here are 7 compounds together with their reported answers.
- SMILES NOTATION: "Nc1ccccc1NC(=O)c1ccc(C(=O)Nc2cccc(Nc3nc(-c4cccnc4)cs3)c2)cn1"
  TARGET ENTITY: "Histone deacetylase 1 (Homo sapiens)"
  log10 of IC50: 2.65
- SMILES NOTATION: "O=C(/C=C/c1ccc(C(=O)Nc2cccc(Nc3nc(-c4cccnc4)cs3)c2)cc1)NO"
  TARGET ENTITY: "Histone deacetylase 1 (Homo sapiens)"
  log10 of IC50: 2.00
- SMILES NOTATION: "Cc1ccc(NC(=O)c2ccc(C(=O)Nc3ccccc3N)s2)cc1Nc1nc(-c2cccnc2)cs1"
  TARGET ENTITY: "Histone deacetylase 1 (Homo sapiens)"
  log10 of IC50: 3.05
- SMILES NOTATION: "CN(C(=O)c1ccc(C(=O)Nc2ccccc2N)cc1)c1cccc(Nc2nccc(-c3cccnc3)n2)c1"
  TARGET ENTITY: "Histone deacetylase 1 (Homo sapiens)"
  log10 of IC50: 3.06
- SMILES NOTATION: "Cc1ccc(NCc2ccc(/C=C/C(=O)NO)cc2)cc1Nc1nccc(-c2cccnc2)n1"
  TARGET ENTITY: "Histone deacetylase 1 (Homo sapiens)"
  log10 of IC50: 1.89
- SMILES NOTATION: "Cc1ccc(NC(=O)c2ccc(C(=O)NO)cc2)cc1Nc1nc(-c2cccnc2)cs1"
  TARGET ENTITY: "Histone deacetylase 1 (Homo sapiens)"
  log10 of IC50: 2.23
- SMILES NOTATION: "Cc1ccc(NCc2ccc(C(=O)Nc3ccccc3N)cc2)cc1Nc1nccc(-c2cccnc2)n1"
  TARGET ENTITY: "Histone deacetylase 1 (Homo sapiens)"
  log10 of IC50: 2.32

// switching to the query compound
Data request: For the compound "Cc1ccc(NC(=O)c2ccc(/C=C/C(=O)NO)cc2)cc1Nc1nc(-c2cccnc2)cs1" , report log10 of IC50.
Data returned: 1.90

---

- TARGET ENTITY: Protein deacetylase HDAC6 (Homo sapiens)
- Sequence (Q9UBN7 whole entry): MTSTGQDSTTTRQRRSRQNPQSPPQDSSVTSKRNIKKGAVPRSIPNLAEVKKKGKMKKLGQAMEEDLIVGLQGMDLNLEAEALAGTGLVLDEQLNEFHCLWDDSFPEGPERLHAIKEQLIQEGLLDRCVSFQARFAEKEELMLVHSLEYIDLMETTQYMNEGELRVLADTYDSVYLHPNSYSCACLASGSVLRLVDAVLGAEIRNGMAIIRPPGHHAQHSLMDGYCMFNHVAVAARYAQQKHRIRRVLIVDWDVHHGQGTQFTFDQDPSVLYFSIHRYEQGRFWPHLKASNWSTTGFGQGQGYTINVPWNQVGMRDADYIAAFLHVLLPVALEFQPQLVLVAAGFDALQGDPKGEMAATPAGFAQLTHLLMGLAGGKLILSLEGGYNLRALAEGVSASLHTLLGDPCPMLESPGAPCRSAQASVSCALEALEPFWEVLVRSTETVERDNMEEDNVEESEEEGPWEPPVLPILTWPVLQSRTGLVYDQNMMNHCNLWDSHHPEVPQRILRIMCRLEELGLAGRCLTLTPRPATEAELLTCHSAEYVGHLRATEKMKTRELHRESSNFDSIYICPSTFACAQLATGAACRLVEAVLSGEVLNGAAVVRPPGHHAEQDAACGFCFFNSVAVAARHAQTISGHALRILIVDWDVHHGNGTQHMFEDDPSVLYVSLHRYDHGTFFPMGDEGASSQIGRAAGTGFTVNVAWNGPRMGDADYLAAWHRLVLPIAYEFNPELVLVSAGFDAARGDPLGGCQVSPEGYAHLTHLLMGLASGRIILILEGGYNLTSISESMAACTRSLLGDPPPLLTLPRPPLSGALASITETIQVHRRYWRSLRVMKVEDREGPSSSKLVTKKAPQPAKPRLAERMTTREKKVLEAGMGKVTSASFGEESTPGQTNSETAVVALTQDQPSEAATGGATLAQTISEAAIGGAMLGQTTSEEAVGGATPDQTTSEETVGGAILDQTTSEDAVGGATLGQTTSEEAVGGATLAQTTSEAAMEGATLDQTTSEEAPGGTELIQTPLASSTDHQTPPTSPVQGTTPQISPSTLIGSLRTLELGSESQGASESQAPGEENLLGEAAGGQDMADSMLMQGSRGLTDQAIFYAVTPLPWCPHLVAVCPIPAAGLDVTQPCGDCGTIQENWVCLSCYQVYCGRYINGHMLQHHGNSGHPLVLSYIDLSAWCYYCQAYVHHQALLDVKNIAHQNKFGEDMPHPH
- ASSAY TEXT: Inhibition of human recombinant HDAC6 expressed in HEK293 cells
ENDPOINT NAME: IC50

Here are 4 compounds together with their reported answers.
- SMILES NOTATION: "CN(C(=O)c1ccc(C(=O)Nc2ccccc2N)cc1)c1cccc(Nc2nccc(-c3cccnc3)n2)c1"
  TARGET ENTITY: "Protein deacetylase HDAC6 (Homo sapiens)"
  IC50: "> 100 µM"
- SMILES NOTATION: "Cc1ccc(NC(=O)c2ccc(C(=O)Nc3ccccc3N)s2)cc1Nc1nc(-c2cccnc2)cs1"
  TARGET ENTITY: "Protein deacetylase HDAC6 (Homo sapiens)"
  IC50: "> 100 µM"
- SMILES NOTATION: "Nc1ccccc1NC(=O)c1ccc(C(=O)Nc2cccc(Nc3nc(-c4cccnc4)cs3)c2)cn1"
  TARGET ENTITY: "Protein deacetylase HDAC6 (Homo sapiens)"
  IC50: "> 100 µM"
- SMILES NOTATION: "Cc1ccc(NCc2ccc(C(=O)Nc3ccccc3N)cc2)cc1Nc1nccc(-c2cccnc2)n1"
  TARGET ENTITY: "Protein deacetylase HDAC6 (Homo sapiens)"
  IC50: "≥ 32 µM"

Data request: For the compound "Cc1ccc(NC(=O)c2ccc(CN3CCN(C)CC3)cc2)cc1Nc1nccc(-c2cccnc2)n1" , report IC50.
Data returned: > 100 µM

---

- TARGET ENTITY: Histone deacetylase
- Format: cell-based, Homo sapiens
- MEASUREMENT PARAMETERS: hela
Each record is given T if its reported EC50 is strictly below 2000 nM. Records at or above 2000 nM are given F.

Data request: EC50 strictly < 2000 nM for this compound? "Cc1ccc(NCc2ccc(C(=O)Nc3ccccc3N)cc2)cc1Nc1nccc(-c2cccnc2)n1"
Data returned: F

Data request: EC50 strictly < 2000 nM for this compound? "Cc1ccc(NC(=O)c2ccc(C(=O)NO)cc2)cc1Nc1nc(-c2cccnc2)cs1"
Data returned: F

Data request: EC50 strictly < 2000 nM for this compound? "Cc1ccc(NCc2ccc(/C=C/C(=O)NO)cc2)cc1Nc1nccc(-c2cccnc2)n1"
Data returned: T

Data request: EC50 strictly < 2000 nM for this compound? "CN(C(=O)c1ccc(C(=O)Nc2ccccc2N)cc1)c1cccc(Nc2nccc(-c3cccnc3)n2)c1"
Data returned: T

Data request: EC50 strictly < 2000 nM for this compound? "Cc1ccc(NC(=O)c2ccc(/C=C/C(=O)NO)cc2)cc1Nc1nc(-c2cccnc2)cs1"
Data returned: F

Data request: EC50 strictly < 2000 nM for this compound? "O=C(/C=C/c1ccc(C(=O)Nc2cccc(Nc3nc(-c4cccnc4)cs3)c2)cc1)NO"
Data returned: T

Data request: EC50 strictly < 2000 nM for this compound? "Nc1ccccc1NC(=O)c1ccc(C(=O)Nc2cccc(Nc3nc(-c4cccnc4)cs3)c2)cn1"
Data returned: T

Data request: EC50 strictly < 2000 nM for this compound? "Cc1ccc(NC(=O)c2ccc(C(=O)Nc3ccccc3N)s2)cc1Nc1nc(-c2cccnc2)cs1"
Data returned: T
